System: OVCAR-5 ovarian
Test protocol: NCI-60 one-dose screen, 48 h (100 = growth as untreated, 0 = no growth, -100 = all killed)
Conditions used: 10 µM unless noted
About 83,000 compounds went through this panel and 20% of them were active in at least one assay; those are over-represented in the sample as a whole. Activity calls are given as the source filed them. Rule for the calls: active = growth percent below 10; inactive = the rest.
Result type: growth

[[record]]
compound = "N=c1sc2ccccc2n1CC(=O)O"
result_type = "growth"
reported = "110% (inactive)"

[[record]]
compound = "COc1ccc2oc3c(ccc[n+]3C)c(=O)c2c1"
result_type = "growth"
reported = "98.9% (inactive)"

[[record]]
compound = "CCCCNC(=O)c1ccccc1C"
result_type = "growth"
reported = "94.4% (inactive)"

[[record]]
compound = "N=C(N=C(N)N)N1CCOCC1"
result_type = "growth"
reported = "99.3% (inactive)"

[[record]]
compound = "CCc1ccccc1-n1[nH]c(C)c(C=N)c1=O"
result_type = "growth"
reported = "110% (inactive)"

[[record]]
compound = "CC(C)(C)OC(=O)NCCc1ccc(N)cc1"
result_type = "growth"
reported = "111% (inactive)"

[[record]]
compound = "Cc1c(O)nc(N)[nH]c1=O"
result_type = "growth"
reported = "106% (inactive)"

[[record]]
compound = "CC1(C)CC(=O)NC1=O"
result_type = "growth"
reported = "94.8% (inactive)"

[[record]]
compound = "CCNC1=CC(=O)c2ncccc2C1=O"
result_type = "growth"
reported = "-53.7% (active)"

[[record]]
compound = "NNc1ncnc2cccc(Cl)c12"
result_type = "growth"
reported = "97.5% (inactive)"

[[record]]
compound = "COc1ccc2nccc(Cl)c2c1"
result_type = "growth"
reported = "102% (inactive)"

[[record]]
compound = "CC(NC(=O)CCl)c1ccccc1 (configuration not stated)"
result_type = "growth"
reported = "109% (inactive)"


The reported numbers originate from PubChem BioAssay (NCI).
